# Tested System: THIK-1 (Homo sapiens)
# Construct: expressed in transfected cells
# Assay Notes: Thallium influx in human THIK-1 overexpressing differentiated THP1 cells
# Type: cell-based
# Experimental Context: THIK-1 mRNA-transfected differentiated THP1 cells; read-out: IC50, block of thallium influx

Molecule: CCCCC[N+](CCCCC)(CCCCC)CCCCC [TPA, tetrapentylammonium chloride, reference compound]
IC50: 6.8 µM

###

# Tested System: PKA (h) (Homo sapiens, UniProt P17612)
pIC50: −log10 of the molar value.
Observed Property: pIC50

Smiles Record: Nc1nonc1-c1nc2ccccc2n1Cc1ccncc1
Result: < 5.00

###

# Tested System: THIK-1 (Homo sapiens, UniProt Q9HB14)
# Construct: expressed in transfected cells
# Sequence (Q9HB14 whole entry): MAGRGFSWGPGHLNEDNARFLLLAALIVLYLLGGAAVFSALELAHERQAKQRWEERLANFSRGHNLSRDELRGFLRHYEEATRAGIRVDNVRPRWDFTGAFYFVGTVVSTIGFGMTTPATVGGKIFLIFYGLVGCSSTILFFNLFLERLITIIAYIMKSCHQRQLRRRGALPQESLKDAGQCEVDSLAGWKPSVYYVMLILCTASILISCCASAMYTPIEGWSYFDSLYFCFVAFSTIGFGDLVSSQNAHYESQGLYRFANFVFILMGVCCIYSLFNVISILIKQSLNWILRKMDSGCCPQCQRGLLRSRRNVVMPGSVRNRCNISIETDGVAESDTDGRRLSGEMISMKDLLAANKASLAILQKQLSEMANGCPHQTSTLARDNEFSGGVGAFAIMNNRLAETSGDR
# Assay Notes: Thallium flux functional wash-off assay, HEK-hTHIK-1 cells
# Assay type: cell-based
# Experimental Context: standard format, 15 min compound incubation, immediate thallium addition; read-out: IC50 (no wash)
pIC50: −log10 of the molar value.
Observed Property: pIC50

Molecule: Nc1nonc1-c1nc2ccccc2n1Cc1ccncc1 [C101248]
Quantitative Result: 7.55
